- System: HEK-293T
- PROTOCOL DETAILS: Multiplex assay against HEK293T
- Assay type: toxicity, cell-based
- TEST CONTEXT: human, 12 h, 1 µM, compound concentration 1 uM, replicate 2
Consider the following molecules and their measured Population Normal (%) readings.

- MOLECULE: "CCCS(=O)(=O)c1nc(NC2CC2)cc(-c2ccc3c(ccn3C3CC(C)(C)NC(C)(C)C3)c2)n1"
  Population Normal (%): 92
- MOLECULE: "CN1C2CCC1CC(OC(c1ccc(F)cc1)c1ccc(F)cc1)C2.Cl (configuration not stated)"
  Population Normal (%): 96
- MOLECULE: "O=C(Cc1ccc(-c2ccc(OCCN3CCOCC3)cc2)cn1)NCc1ccccc1"
  Population Normal (%): 97
- MOLECULE: "CCn1c(=O)c(-c2ccc(-c3cncs3)cc2Cl)cc2cnc(Nc3ccc(N4CCN(C)CC4)cc3)nc21"
  Population Normal (%): 97
- MOLECULE: "CNc1cc(Oc2cc(C(=O)Nc3cc(N4CCN(C)CC4)cc(C(F)(F)F)c3)ccc2C)ncn1"
  Population Normal (%): 93
- MOLECULE: "CN1CCN(C(=O)C(C)(C)c2ccc(C(=O)Nc3cn4cc(-c5cc(C(C)(C)C)cc(C(C)(C)C)c5)ccc4n3)cc2)CC1"
  Population Normal (%): 97
- MOLECULE: "CCOC(=O)c1c(C)[nH]c2ccc3c(c12)CN1CCc2cc(OC)ccc2C1O3 (configuration not stated)"
  Population Normal (%): 94
- MOLECULE: "Cn1nc(C(F)(F)F)cc1-c1cnc(N2CCc3cc(S(=O)(=O)Nc4c(F)cc(Cl)cc4F)cc(N4CCCC4=O)c32)nc1"
  Population Normal (%): 98
- MOLECULE: "CCOc1cc2ncc(C#N)c(Nc3ccc(OCc4ccccn4)c(Cl)c3)c2cc1NC(=O)/C=C/CN(C)C"
  Population Normal (%): 80
- MOLECULE: "O=C1NC(=O)C(c2cnc3ccccn23)=C1c1cn2c3c(cc(F)cc13)CN(C(=O)N1CCCCC1)CC2"
  Population Normal (%): 92
- MOLECULE: "C=CCn1c(=O)c2cnc(Nc3ccc(N4CCN(C)CC4)cc3)nc2n1-c1cccc(C(C)(C)O)n1"
  Population Normal (%): 96
- MOLECULE: "CCN1CCN(Cc2ccc(Nc3ncc(F)c(-c4cc(F)c5nc(C)n(C(C)C)c5c4)n3)nc2)CC1.CS(=O)(=O)O"
  Population Normal (%): 95
- MOLECULE: "NC(=O)c1cccc(-c2cc(Nc3ccc(OC(F)(F)F)cc3)ncn2)c1"
  Population Normal (%): 98
- MOLECULE: "CCCn1c(=O)c2[nH]c(-c3cnn(Cc4cccc(C(F)(F)F)c4)c3)nc2n(CC)c1=O"
  Population Normal (%): 94
- MOLECULE: "CCn1cc(-c2ccnc3[nH]c(-c4cccc(CN(C)C)c4)cc23)c(-c2ccc(NC(=O)N(C)C)cc2)n1"
  Population Normal (%): 97
- MOLECULE: "COc1cc(N2CCN(C)CC2)ccc1Nc1ncc2c(n1)N(C)c1ccccc1C(=O)N2C"
  Population Normal (%): 96
- MOLECULE: "CCNc1cc(N[C@H]2CC[C@H](O)CC2)nc(Nc2ccc3c(ccn3Cc3ccccc3)c2)n1"
  Population Normal (%): 97
